- Experimental target: T1, HLA-DQ2.5/alpha 1 gliadin peptide complex on Ba/F3 cells (human; wheat)
- T1 construct: also called Ba/F3-HLA-DQ2.5/alpha 1 gliadin peptide
- Assay name: FACS
Property label: FIG. 30 FACS value (IC17=0, DQN0139bb=100)
Could you keep your reply to the number by itself?

DQN0271hh (antibody, human IgG1, kappa, V domains shown, also called DQN0271Lh) VH: QSLEESGGGLVKPGASLTLTCKASGFSFSSGYYMCWVRQAPGKGLEWIACIYAGSPDLTYYATWAKGRLTISTTSSTTVTLQLTSLTAADTATYFCARDPGNWGGYDDVRLWGPGTLVTVSS VL: AQVLTQTPSPVSAAVGGTVTISCQSSQSIYSNYLSWFQQKTGQPPKLLIYRASTLASGVPSRFKGSGSGTEFTLTISGVECDDAATYYCQGYYSGAIWTFGGGTKVEIKR; 91.2

Please look up its FIG. 30 FACS value (IC17=0, DQN0139bb=100): DQN0344xx (antibody, human IgG1, kappa, V domains shown, also called DQN0344Hx; DQN0344Lx) VH: QSLEESGGGLVKPGGTLTLTCTASGFSFSSSYWMCWVRQAPGKGLEWVACVYGGSDTTYYASWTKGRFTISKGSSTTVALQVTSLTAADTATYFCARDPLNYYYYGELNLWGPGTLVTVSS VL: AVVLTQTASPVSAAVGGTVTIRCQATENIYSGLAWYQQKPGQPPKVLIYYVSTLASGVPSRFKGSGSGTEYTLTISGVQCDDAATYYCQTYHDISNVTFGGGTKVEIKR 89.7

Please give the result for DQN0370hh (antibody, human IgG1, kappa, V domains shown, also called DQN0370Lh) VH: QSLEESGGGLVKPGGPLTLTCTASGFSFSSAYYMCWVRQAPGKGLEWIACIYVGSGSTYYTSWAKGRFTISKVSSTTMTLQMTSLTAADTATYFCARDPLIYYYYGELNLWGPGTLVTVSS VL: AVVLTQTASPVSAPVGGTVTIKCQASEDIYSNLAWYQQKPGQRPKVLIYSASTLASGVSSRFKGSRSGTEYTLSITDLGCADAATYYCQAYYDIGGVTFGGGTKVEIKR too. 91.2
